Items are presented alongside their recorded IC50.
- measuredTarget: CGRP receptor (Homo sapiens, UniProt O60894+Q16602)
- Sequence (Q16602 23-461): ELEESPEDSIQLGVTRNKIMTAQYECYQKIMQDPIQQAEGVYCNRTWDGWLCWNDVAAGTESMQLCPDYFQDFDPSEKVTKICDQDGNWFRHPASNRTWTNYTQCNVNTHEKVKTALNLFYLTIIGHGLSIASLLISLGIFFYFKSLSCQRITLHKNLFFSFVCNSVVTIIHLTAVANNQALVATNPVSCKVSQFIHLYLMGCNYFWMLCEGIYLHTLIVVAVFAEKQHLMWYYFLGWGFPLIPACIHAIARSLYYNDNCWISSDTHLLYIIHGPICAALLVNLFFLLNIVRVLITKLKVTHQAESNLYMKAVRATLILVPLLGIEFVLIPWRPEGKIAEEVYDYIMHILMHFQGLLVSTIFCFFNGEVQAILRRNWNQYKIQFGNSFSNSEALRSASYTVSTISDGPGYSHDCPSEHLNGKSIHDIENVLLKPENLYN
- Sequence (O60894 27-148): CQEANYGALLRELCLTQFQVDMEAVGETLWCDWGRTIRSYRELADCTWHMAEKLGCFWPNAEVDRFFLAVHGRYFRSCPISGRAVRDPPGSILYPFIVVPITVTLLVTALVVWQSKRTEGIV
- measurementProtocol: CGRP radioligand binding assay ([125I]-CGRP displacement, SK-N-MC homogenate)
- Set-up: endogenous in cells; host or cells: SK-N-MC cells (homogenate/membrane pellet)
- experimentalSetup: displacement of [125I]-CGRP, room temperature 2 h

Known results for molecules:
molecule: O=C(C[C@@H]1Cc2cc(Br)c3[nH]ncc3c2CN(CC(F)(F)F)C1=O)N1CCC(c2cc3ccccc3[nH]c2=O)CC1 [Example 97]
IC50: 0.1 to 10 nM
--
molecule: CC(C)(C)CN1Cc2c(ccc3[nH]ncc23)C[C@H](CC(=O)N2CCC(N3Cc4ccccc4NC3=O)CC2)C1=O [Example 66]
IC50: 10 to 100 nM

// switching to the query molecule
Prompt: Entry O=C1Nc2ccccc2C2(CCN(C(=O)N[C@@H]3Cc4ccc5[nH]ncc5c4CN(Cc4ccc(C(F)(F)F)cc4)C3=O)CC2)N1 [Example 14] has what IC50?
Completion: 100 to 1000 nM

###

Listing of entries alongside the reported pIC50.
- measuredTarget: CGRP receptor (Homo sapiens, UniProt O60894+Q16602)
- measurementProtocol: CGRP radioligand binding assay ([125I]-CGRP displacement, SK-N-MC homogenate)
- Design: endogenous in cells; host or cells: SK-N-MC cells (homogenate/membrane pellet)
- experimentalSetup: displacement of [125I]-CGRP, room temperature 2 h
- Protocol: CGRP Binding Assay. Tissue Culture. SK—N-MC cells were grown at 37° C. in 5% CO2 as a monolayer in medium consisting of MEM with Earle's salts and L-glutamine (Gibco) supplemented with 10% fetal bovine serum (Gibco). Cell Pellets. […] Radioligand Binding Assay. […] Protein bound radioactivity was determined using a gamma or scintillation counter. […]
pIC50: −log10 of the molar value.

compound: CC(C)(C)CN1Cc2c(ccc3[nH]ncc23)CC(NC(=O)N2CCC3(CC2)NC(=O)Nc2ccccc23)C1=O (stereo not drawn)
pIC50: 7.00 to 8.00
//
compound: CC(C)(C)CN1Cc2c(cc(Cl)c3[nH]ncc23)C[C@@H](CC(=O)Nc2ccc3c(c2)CC2(C3)NC(=O)NC2=O)C1=O (mixture of isomers)
pIC50: 7.00 to 8.00
//
compound: O=C(C[C@@H]1Cc2cc(Cl)c3[nH]ncc3c2CN(CC(F)(F)F)C1=O)N1CCC(c2cc3cccnc3[nH]c2=O)CC1
pIC50: 8.00 to 10.00
//
compound: O=C(N[C@@H]1Cc2ccc3[nH]ncc3c2CN(Cc2ccc(C(F)(F)F)cc2)C1=O)N1CCC(N2Cc3ccccc3NC2=O)CC1
pIC50: 7.00 to 8.00
//
compound: C[C@H](c1ccccc1)N1Cc2c(ccc3[nH]ncc23)C[C@@H](NC(=O)N2CCC(N3Cc4ccccc4NC3=O)CC2)C1=O
pIC50: 7.00 to 8.00

Then there is this compound:
Prompt: What value of pIC50 on CGRP receptor (Homo sapiens, UniProt O60894+Q16602) does "O=C(C[C@@H]1Cc2cc(Cl)c3[nH]ncc3c2CN(Cc2ccncc2)C1=O)N1CCC(n2cc(-c3ccccc3)[nH]c2=O)CC1" have?
Completion: 8.00 to 10.00

###

Let's look at some molecules and their measured pIC50.
- measuredTarget: CGRP receptor (Homo sapiens, UniProt O60894+Q16602)
- measurementProtocol: Cyclic AMP functional antagonism assay in SK-N-MC cells
- Assay type: cell-based
- Design: SK—N-MC cells that endogenously express the human CGRP receptor; endogenous in cells; host or cells: SK-N-MC cells
- experimentalSetup: inhibition of 0.3 nM CGRP-induced cyclic AMP formation, 15 min pre-incubation, read-out: cAMP Function IC50
pIC50: −log10 of the molar value.

The examples below pair each entry with its known result.
molecule: O=C(C[C@@H]1Cc2cc(Cl)c3[nH]ncc3c2CN(Cc2ccncc2)C1=O)N1CCC(c2cc3ccccc3[nH]c2=O)CC1
result: 8.00 to 10.00
//
molecule: O=C(C[C@@H]1Cc2cc(Cl)c3[nH]ncc3c2CN(Cc2ccncc2)C1=O)N1CCC(c2cc3ccccc3cn2)CC1
result: 7.00 to 8.00
//
molecule: CC(C)(C)CN1Cc2c(cc(Cl)c3[nH]ncc23)C[C@@H](NC(=O)N2CCC(N3Cc4ccccc4NC3=O)CC2)C1=O
result: 8.00 to 10.00
//
molecule: O=C(N[C@@H]1Cc2cc3cn[nH]c3cc2CN(Cc2ccccc2)C1=O)N1CCC(N2Cc3ccccc3NC2=O)CC1
result: 7.00 to 8.00
//
molecule: O=C(C[C@@H]1Cc2cc(Cl)c3[nH]ncc3c2CN(Cc2ccncc2)C1=O)N1CCC(N2Cc3ccccc3NC2=O)CC1
result: 8.00 to 10.00
//
molecule: CC(C)(C)CN1Cc2c(ccc3[nH]ncc23)CC(NC(=O)N2CCC(N3Cc4ccccc4NC3=O)CC2)C1=O (centres unmarked)
result: 8.00 to 10.00
//
molecule: CC(C)(C)CN1Cc2c(cc(Cl)c3[nH]ncc23)C[C@@H](CC(=O)N2CCC3(CC2)NC(=O)Nc2ccccc23)C1=O
result: 8.00 to 10.00
//
molecule: CC(C)(C)CN1C(=O)C(CC(=O)N2CCC(N3Cc4ccccc4NC3=O)CC2)Cc2cc3[nH]ncc3cc21 (centres unmarked)
result: 7.00 to 8.00
//
molecule: CC(C)CN1Cc2c(ccc3[nH]ncc23)CC(NC(=O)N2CCC(N3Cc4ccccc4NC3=O)CC2)C1=O (centres unmarked)
result: 7.00 to 8.00
//
molecule: CC(C)(C)CN1Cc2c(cc(Cl)c3[nH]ncc23)C[C@@H](CC(=O)N2CCC(N3Cc4cccc(F)c4NC3=O)CC2)C1=O
result: 8.00 to 10.00

Prompt: Name the reported pIC50 value associated with the molecule "O=C(C[C@@H]1Cc2cc(Cl)c3[nH]ncc3c2CN(Cc2ccncc2)C1=O)N1CCC(N2Cc3cccc(F)c3NC2=O)CC1"
Completion: 8.00 to 10.00

Prompt: Dear colleague, I am looking for the recorded pIC50 of the following molecule: "CC(C)(C)CN1Cc2c(cc(Cl)c3[nH]ncc23)C[C@@H](CC(=O)N2CCC(N3Cc4ccccc4NC3=O)CC2)C1=O"
Completion: 8.00 to 10.00

Prompt: May I ask what pIC50 has been recorded for "CC(C)(C)CN1Cc2c(cc(Cl)c3[nH]ncc23)C[C@@H](CC(=O)N2CCC(c3cc4cnccc4[nH]c3=O)CC2)C1=O" ?
Completion: 7.00 to 8.00

Prompt: For Cc1cc2c(c3cn[nH]c13)CN(C)C(=O)C(NC(=O)N1CCC(N3Cc4ccccc4NC3=O)CC1)C2 (centres unmarked) , what is its reported pIC50?
Completion: 7.00 to 8.00

###

IC50 values for the compounds below.
- measuredTarget: CGRP receptor (Homo sapiens, UniProt O60894+Q16602)
- measurementProtocol: CGRP radioligand binding assay ([125I]-CGRP displacement, SK-N-MC homogenate)
- Set-up: endogenous in cells; host or cells: SK-N-MC cells (homogenate/membrane pellet)
- experimentalSetup: displacement of [125I]-CGRP, room temperature 2 h

Some entries whose results are on file:
compoundString: CC(C)(C)CN1Cc2c(cc(Cl)c3[nH]ncc23)C[C@@H](NC(=O)N2CCC(N3Cc4ccccc4NC3=O)CC2)C1=O
measuredTarget: CGRP receptor (Homo sapiens, UniProt O60894+Q16602)
IC50: 0.0001 to 0.01 µM

compoundString: CC(C)(C)CN1Cc2c(cc(Cl)c3[nH]ncc23)C[C@@H](CC(=O)N2CCC(N3Cc4ccccc4NC3=O)CC2)C1=O
measuredTarget: CGRP receptor (Homo sapiens, UniProt O60894+Q16602)
IC50: 0.0001 to 0.01 µM

Prompt: Field: IC50 (CGRP receptor (Homo sapiens, UniProt O60894+Q16602)). Entry: "CN1Cc2c(ccc3[nH]ncc23)C[C@@H](NC(=O)N2CCC(N3Cc4ccccc4NC3=O)CC2)C1=O"
Completion: 0.1 to 1 µM

Prompt: Query IC50 on CGRP receptor (Homo sapiens, UniProt O60894+Q16602) for "O=C(C[C@@H]1Cc2cc(Cl)c3[nH]ncc3c2CN(Cc2ccncc2)C1=O)N1CCC(c2cc3ccccc3c[n+]2[O-])CC1"
Completion: 0.0001 to 0.01 µM

Prompt: Given the entry "O=C(C[C@@H]1Cc2cc(Br)c3[nH]ncc3c2CN(CC(F)(F)F)C1=O)N1CCC(c2cc3cccnc3[nH]c2=O)CC1" , what IC50 was observed with CGRP receptor (Homo sapiens, UniProt O60894+Q16602)?
Completion: 0.0001 to 0.01 µM

Prompt: For CGRP receptor (Homo sapiens, UniProt O60894+Q16602), provide IC50 of "CC(C)(C)CN1Cc2c(cc(Cl)c3[nH]ncc23)C[C@@H](CC(=O)N2CCC(c3cc4cccc(Cl)c4[nH]c3=O)CC2)C1=O" please.
Completion: 0.1 to 1 µM
